target: Prostaglandin G/H synthase 1 (Homo sapiens, UniProt P23219); type: functional; note: assay procedure not described here
Sequence (P23219 whole entry): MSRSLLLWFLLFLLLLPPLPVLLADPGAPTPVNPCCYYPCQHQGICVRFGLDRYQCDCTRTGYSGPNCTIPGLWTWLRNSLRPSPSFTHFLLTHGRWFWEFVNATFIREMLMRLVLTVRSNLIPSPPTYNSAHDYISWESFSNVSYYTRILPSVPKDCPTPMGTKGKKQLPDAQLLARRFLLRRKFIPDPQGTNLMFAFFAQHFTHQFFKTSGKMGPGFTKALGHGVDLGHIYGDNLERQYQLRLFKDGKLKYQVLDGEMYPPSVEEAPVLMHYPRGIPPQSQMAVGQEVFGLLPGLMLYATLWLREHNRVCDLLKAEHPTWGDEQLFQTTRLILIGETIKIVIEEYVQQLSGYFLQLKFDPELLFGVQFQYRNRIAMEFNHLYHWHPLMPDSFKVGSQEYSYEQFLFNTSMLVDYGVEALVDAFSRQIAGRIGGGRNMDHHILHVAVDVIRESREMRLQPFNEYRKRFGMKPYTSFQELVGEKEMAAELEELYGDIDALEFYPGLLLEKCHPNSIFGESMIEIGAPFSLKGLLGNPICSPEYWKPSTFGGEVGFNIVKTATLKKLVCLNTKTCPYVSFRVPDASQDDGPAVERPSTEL
Documented AC50 across a set of compounds
Kindly answer with a numeric value in µM, unit omitted.

Example results:
INSERT INTO measurements (compound, quantitative_result) VALUES
  ('Nc1nc2nc[nH]c2c(=S)[nH]1', 0.81),
  ('CCN1CCCC1CNC(=O)c1cc(S(N)(=O)=O)ccc1OC (stereo not given) [SULPIRIDE]', 11.7),
  ('CC(C)(C)C(=O)OCOC(=O)[C@@H]1N2C(=O)[C@@H](NC(=O)[C@H](N)c3ccccc3)[C@H]2SC1(C)C', 7.48);

# evaluate next
Write down measured AC50 (Prostaglandin G/H synthase 1 (Homo sapiens, UniProt P23219)) for this compound. COCCCN1CCC(NC(=O)c2cc(Cl)c(N)c3c2OCC3)CC1 [PRUCALOPRIDE]
23.6
